# System: Propionibacterium acnes ATCC 6919
# Assay details: MIC, agar dilution method NCCLS M11-A6, Brucella agar, anaerobic (Table 9, superscript c)
# Format: cell-based
# Assay context: ATCC 6919
Non-standard residues stand in square brackets, D forms with d. Residues, ends and D or L forms follow the SMILES beside them. *: point of attachment. Lauroyl = CCCCCCCCCCCC(=O)*
Value kind: MIC P. acnes (c ug/mL)
I only need the number, in c ug/mL, no unit after it.

stdin: API: value(readout=MIC P. acnes, system=Propionibacterium acnes ATCC 6919) for record CCCCCCCCCCCC(=O)N[C@H](CCCNC(=N)N)C(=O)N[C@H](Cc1c[nH]c2ccccc12)C(=O)N[C@H](CCCNC(=N)N)C(=O)N[C@H](CC(=O)O)C(=O)N[C@@H](C(=O)N[C@H](C)C(=O)N[C@H](CCCNC(=N)N)C(=O)N[C@H](CC(N)=O)C(=O)N[C@H](Cc1ccccc1)C(=O)N[C@H](CCSC)C(=O)N[C@H](CCCNC(=N)N)C(N)=O)C(C)C [Peptide 130, Lauryl-rwrdvarnfmr-NH2] (Lauroyl-[dR][dW][dR][dD][dV][dA][dR][dN][dF][dM][dR]-NH2)
stdout: 8
